The reader will find reported melting point values listed item by item below.
Experimental readout: melting point

CCCn1c(=O)c2c(nc(C=Cc3ccc(C(=O)O)cc3OC)n2C)n(CCC)c1=O; 285 to 286 °C
CC1=NC(NC(=O)Nc2cccc(C)c2)C(=O)N(CC(=O)c2ccccc2C)c2c(C)cccc21 (stereo not given); 128 to 136 °C
CN1CCN(c2cccc3ccc(Nc4ccc([N+](=O)[O-])cc4[N+](=O)[O-])cc23)CC1; 153 to 154 °C
Cc1cccc(-c2c(C3CCN(C)CC3)[nH]c(=O)c3ccccc23)c1; 214 to 216 °C
CCOC(=O)CC(O)c1ccc([N+](=O)[O-])c(OC)c1 (stereo not given); 54 to 56 °C
O=C1c2ccc(Sc3ccc4c(c3)C(=O)N(c3ccccc3)C4=O)cc2C(=O)N1c1ccccc1; 275 to 280 °C
Cn1nc(C#N)c(Nc2cc(Cl)c(Cl)cc2[N+](=O)[O-])n1; 148 to 150 °C
COCON=C(C(C)=O)C(=O)OC; 115 to 120 °C
Cc1c(C)c2c(c(C)c1N)CC(C)(CN1CCC(C(=O)NCC(c3ccccc3)c3ccccc3)CC1)O2 (stereo not given); 168 to 170 °C
O=[N+]([O-])c1cc2ccccc2nc1Nc1ccc(O)cc1; 190 °C
O=C(O)C1CSC(C2CCCCC2)=NN1C(=O)CCS (stereo not given); 95 to 97 °C
O=C1NC(=O)C(S(=O)(=O)c2ccc(Cl)cc2)S1 (stereo not given); 143 to 144 °C
CCn1ccc2c(c1=O)CN=C(N1CCN(Cc3ccccc3)CC1)N2; 200 to 203 °C
Cc1nc(-c2ccc(Cl)cc2)c(CC(=O)O)o1; 215 to 216 °C
CCCCCCCNC(=O)Nc1c(C(=O)NC2CCN(C(c3ccccc3)c3ccccc3)CC2)cccc1N(C)C; 203 °C
CC1(C)Oc2ccc([N+](=O)[O-])cc2C(C(N)=O)=C1O; 189 to 191 °C
NC(=S)NN=C(CCC(=O)N1CCCCC1)c1ccccc1; 181 to 183 °C
CCCC1(CCC)c2cc(-c3nc4cc(C)ccc4o3)ccc2-c2cc(O)c(-c3nc4cc(C)ccc4o3)cc21; 291 to 293 °C
CC1(C)OC(=O)Nc2c(O)cc(-c3cc(F)cc(C#N)c3)cc21; 197 to 198 °C
COc1ccc(C2(C#N)CCC(CC(=O)O)CC2)c2c1OCCO2 (stereo not given); 149 to 150 °C
CN1C(=O)[C@@H](NC(=O)OC(C)(C)C)CCc2ccccc21; 132 to 134 °C
CCc1cccc2c3c([nH]c12)C1(CC(=O)O)CC1CC3 (stereo not given); 154 to 156 °C
CCOCc1cc2ccc(OCc3ccccc3)cc2oc1=O; 122 to 124 °C
COC(=O)c1cccc2c1N(CCN(C(C)C)C(C)C)C(=O)/C2=N\NC(N)=O; 192 to 195 °C
NS(=O)(=O)c1cc2c(s1)S(=O)(=O)CC(O)C2O (stereo not given); 182 to 185 °C
O=C1CCC(N2Cc3cc(CNC(=O)NC4CCCCC4)ccc3C2=O)C(=O)N1 (stereo not given); 265 to 267 °C
CC1=C(OC(=O)C(C)(C)C)C2=C(O)N(I)CN(OC(=O)C(C)(C)C)C2=N1; 155 °C
CC1(C)COC(=O)N1c1nc(-c2ccc(C#N)cc2)cs1; 183 to 185 °C
CS(=O)(=O)Nc1cccc(Nc2nc(N3CCN(c4ccncc4)CC3)c3nc[nH]c3n2)c1; 227 to 230 °C
C[C@@H]1C(=O)C[C@H]2C[C@@H]1OO[C@@]2(C)/C=C\c1ccc(C(C)(C)C)cc1; 101 °C
CC1CC(=O)NN=C1c1ccc(-n2cnc3c2CCCC3)cc1 (stereo not given); 199 to 200 °C
NC(=S)NN=Cc1ccc(N)cn1; 205 to 207 °C
COc1cc(OC)c2c(=O)[nH]c(-c3cc(C)nc(C)c3)nc2c1; 291 to 292 °C
COc1ccc(N2CCN(c3ccc(-n4c(C)c[nH]c4=O)cc3)CC2)cc1; > 300 °C
CC[C@@H]1c2onc(-c3ccc(Cl)cc3)c2CC[C@H]1C(=O)O (relative stereo); 162 to 163 °C
CS(=O)(=O)Nc1ccccc1C(=O)C1CCCCC1; 119 to 120 °C
CCc1ccccc1NC(=O)c1ccccc1SSc1ccccc1C(=O)Nc1ccccc1CC; 255 to 256 °C
CCOP(=O)(OCC)C(O)=Cc1nn(-c2ccc(F)cc2)cc1-c1ccc(Cl)cc1; 96 to 98 °C
COC(=O)c1ccc(Sc2ccccc2)cc1Sc1ccccc1; 124 °C
CC(C)Cn1c(CNC(=O)OC(C)(C)C)c(-c2cccs2)c2cc(C(=O)O)ccc2c1=O; 224 to 226 °C

// provenance: a melting point compilation (Tetko et al.; mined from patent text by program, amines drawn as free bases though some values may be those of a salt)
